B1: library; a variant is named by its letters at N, in order (parent)
chain: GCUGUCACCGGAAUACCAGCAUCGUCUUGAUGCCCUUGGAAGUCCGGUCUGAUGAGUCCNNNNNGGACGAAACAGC

Variants of: B1
protocol summary: FACS-Seq fitted mean relative fluorescence mCherry/BFP with ligand (log10 relative fluorescence); ligand concentration (+) FACS-Seq: 1 mM; higher = higher reporter protein expression
condition info: HEK293T, ligand present: yes
property: FACS-Seq fitted mean (log10)
# respond with the number and nothing more

>>> recorded_measurement("GCUGUCACCGGAAUACCAGCAUCGUCUUGAUGCCCUUGGAAGUCCGGUCUGAUGAGUCCACGCUGGACGAAACAGC")
1.01
>>> recorded_measurement("GCUGUCACCGGAAUACCAGCAUCGUCUUGAUGCCCUUGGAAGUCCGGUCUGAUGAGUCCUGACGGGACGAAACAGC")
0.53
>>> recorded_measurement("GCUGUCACCGGAAUACCAGCAUCGUCUUGAUGCCCUUGGAAGUCCGGUCUGAUGAGUCCAAUCUGGACGAAACAGC")
0.57
>>> recorded_measurement("GCUGUCACCGGAAUACCAGCAUCGUCUUGAUGCCCUUGGAAGUCCGGUCUGAUGAGUCCCCGCAGGACGAAACAGC")
0.764

Prompt: Fill in: FACS-Seq fitted mean (log10) of `GCUGUCACCGGAAUACCAGCAUCGUCUUGAUGCCCUUGGAAGUCCGGUCUGAUGAGUCCCAGGCGGACGAAACAGC` is ___
Completion: 0.813

Prompt: Find the recorded FACS-Seq fitted mean (log10) belonging to `GCUGUCACCGGAAUACCAGCAUCGUCUUGAUGCCCUUGGAAGUCCGGUCUGAUGAGUCCAUCAAGGACGAAACAGC` and report it.
Completion: 1.15

These data points were gathered from the supplement of paper PMC6757056.
